Source listed as ChEMBL document CHEMBL5096239.

PROTOCOL: Binding affinity to 15N-labelled MTSL-tagged SARS-CoV-2 Mac3 (551 to 675 residues) T583C mutant expressed in Escherichia coli Rosetta by transferred PRE analysis
Parameters: species or system Severe acute respiratory syndrome coronavirus 2
PROPERTY: Kd (µM)
Value expressed in µM; do not type the unit.

Q) Return reported Kd. Input compound: Cc1ccc(Cl)c(Nc2ccccc2C(=O)O)c1Cl [MECLOFENAMIC ACID]
A) 700
